TEST SYSTEM: Lysine-specific demethylase 4A (Homo sapiens)
PROTOCOL DETAILS: qHTS Assay for Inhibitors of JMJD2A-Tudor Domain; further: nearly all actives have a fitted effect of over 50% in size
TEST CONTEXT: AlphaScreen JMJD2A-Tudor / H3K4me3 peptide binding; series mostly up to 114 µM
Hit rate of the full screen: of about 390,000 compounds, about 17,000 (4.4%) were called active. Another 8% or so got no clear call; they are omitted. The call rests on the fitted dose curve; in most records, active means well fitted inhibition curve with a large enough effect; inconclusive means small, poorly fitted or top-dose-only effect; inactive means no such curve, though single readings can be large or run the other way. The sample holds actives, similar compounds and a random draw of the others, so the mix is not that of the screen.
Assign a class; possible classes are active, inactive

Examples from the recorded data:
>  <COMPOUND>
Cc1ccc2c(c1)C(c1ccccc1)N(C(=O)c1ccc(S(=O)(=O)N3CCOCC3)cc1)CC(=O)N2 (stereo not drawn)

>  <LABEL>
active

$$$$
>  <COMPOUND>
CCC(C)(C)n1nnnc1C(c1ccc(OC)c(OC)c1)N1CCN(C(=O)c2ccco2)CC1 (stereo not drawn)

>  <LABEL>
active

$$$$

Problem: Please let me know the test result on file for `Cc1ccc2nc(COc3cccc(NC(=O)c4cccc(Cl)c4)c3)cc(=O)n2c1` .
Solution: inactive

Problem: Kindly provide the recorded test outcome for the following compound: COc1cccc(CNS(=O)(=O)c2ccc3c(c2)CC(C)N3C(=O)C2CCC2)c1 (stereo not drawn)
Solution: inactive

Problem: // param item: COC(=O)c1ccc(C2C(C(=O)Nc3ccccc3)=C(C)Nc3nc4ccccc4n32)cc1 (stereo not drawn) ; yields the recorded call
Solution: inactive

---

TEST SYSTEM: Lysine-specific demethylase 4A (Homo sapiens)
PROTOCOL DETAILS: qHTS Assay for Inhibitors of JMJD2A-Tudor Domain; further: nearly all actives have a fitted effect of over 50% in size; further: potency means the concentration at half of the fitted maximal effect
TEST CONTEXT: AlphaScreen JMJD2A-Tudor / H3K4me3 peptide binding; series mostly up to 114 µM
Screen size: about 390,000 compounds; about 17,000 (4.4%) were called active. About 8% were inconclusive and are not listed. This is one part of a sample in which actives are shown more often than they occur.
EXPERIMENTAL READOUT: Potency

Guide cases for Potency, answers given:
>  <MOLECULE>
CN(C)c1ccc(C(=S)N2CCN(C(=S)Nc3ccc(Cl)cc3)CC2)cc1

>  <TEST SYSTEM>
Lysine-specific demethylase 4A (Homo sapiens)

>  <EXPERIMENTAL READOUT>
Potency

>  <OBSERVED RESULT>
28.2 µM (active)

$$$$
>  <MOLECULE>
Cc1cccc(C)c1NC(=O)CCCSc1nnc(-c2ccco2)n1-c1ccccc1

>  <TEST SYSTEM>
Lysine-specific demethylase 4A (Homo sapiens)

>  <EXPERIMENTAL READOUT>
Potency

>  <OBSERVED RESULT>
inactive

$$$$
>  <MOLECULE>
NNC(=O)CSc1nnc(-c2ccccc2)n1-c1ccccc1

>  <TEST SYSTEM>
Lysine-specific demethylase 4A (Homo sapiens)

>  <EXPERIMENTAL READOUT>
Potency

>  <OBSERVED RESULT>
inactive

$$$$
>  <MOLECULE>
O=C(Nc1nonc1-c1ccc(Cl)cc1)c1ccco1

>  <TEST SYSTEM>
Lysine-specific demethylase 4A (Homo sapiens)

>  <EXPERIMENTAL READOUT>
Potency

>  <OBSERVED RESULT>
inactive

$$$$
>  <MOLECULE>
Cc1ccc(NN=Nc2nc3c([nH]2)c(=O)n(C)c(=O)n3C)cc1

>  <TEST SYSTEM>
Lysine-specific demethylase 4A (Homo sapiens)

>  <EXPERIMENTAL READOUT>
Potency

>  <OBSERVED RESULT>
14.1 µM (active)

$$$$
>  <MOLECULE>
CCOc1ccccc1N1CCN(C(=O)c2ccc3[nH]c(C)c(C)c3c2)CC1

>  <TEST SYSTEM>
Lysine-specific demethylase 4A (Homo sapiens)

>  <EXPERIMENTAL READOUT>
Potency

>  <OBSERVED RESULT>
56.2 µM (active)

$$$$
>  <MOLECULE>
CCOc1ccccc1NC(=S)N1CCN(c2cccc(C)c2C)CC1

>  <TEST SYSTEM>
Lysine-specific demethylase 4A (Homo sapiens)

>  <EXPERIMENTAL READOUT>
Potency

>  <OBSERVED RESULT>
inactive

$$$$
>  <MOLECULE>
CCC(=O)N1N=C(c2ccc(OC)cc2)CC1c1cn(-c2ccccc2)nc1-c1cccs1 (stereo not given)

>  <TEST SYSTEM>
Lysine-specific demethylase 4A (Homo sapiens)

>  <EXPERIMENTAL READOUT>
Potency

>  <OBSERVED RESULT>
inactive

$$$$

Problem: Notebook: pull reported Potency for Lysine-specific demethylase 4A (Homo sapiens), entry `CCn1c(C)c(C)c2cc(C(=O)N3CCN(c4cccc(C)c4C)CC3)ccc21`
Solution: 31.6 µM (active)

Problem: API: value(readout= Potency, system= Lysine-specific demethylase 4A (Homo sapiens), query= `O=C(Nc1nc(-c2ccco2)c(-c2ccco2)s1)c1ccco1` )
Solution: 50.1 µM (active)
